System: U2OS
TEST: Multiplex assay against U2OS
Format: toxicity, cell-based
RUN_CONDITIONS: human, 24 h, 1 µM, compound concentration 1 uM, replicate 1
Non-standard residues stand in square brackets, D forms with d. Residues, ends and D or L forms follow the SMILES beside them.
Hi, to clarify the labels: MET covers Total Cell Count from 300 upward, NOT MET covers anything below 300.

Inquiry: State whether the measured Total Cell Count reaches 300, counting equality as reaching it, for O=C(Nc1cc(-c2ccccc2)nn1-c1ccccc1F)c1ccc([N+](=O)[O-])cc1
Reply text: MET

Inquiry: Now the same for Nc1nc(-c2ccco2)c2cnn(Cc3ccccc3F)c2n1
Reply text: MET

Inquiry: Now the same for S=C(NCCCc1c[nH]cn1)NCCCN(Cc1ccc(Cl)c(Cl)c1)c1ccc(Br)cn1
Reply text: NOT MET

Inquiry: Now the same for Cc1cc(NC(=O)NCCN2CCC(O)(Cc3ccccc3)CC2)c2ccccc2n1
Reply text: NOT MET

Inquiry: Now the same for CC(C)C[C@@H]1NC(=O)[C@@H](C(C)C)NC(=O)[C@@H]2CCCN2C(=O)[C@@H](CC(=O)O)NC(=O)[C@@H](Cc2c[nH]c3ccccc23)NC1=O [BQ-123] (cyclo(L[dW][dD]P[dV]))
Reply text: NOT MET

Inquiry: Now the same for O=C(NCCNCC(O)COc1ccc(O)cc1)N1CCOCC1.O=C(NCCNCC(O)COc1ccc(O)cc1)N1CCOCC1.O=C(O)/C=C/C(=O)O (stereo not drawn) [XAMOTEROL FUMARATE]
Reply text: MET
